Just for reference, paper PMC7035956 is where these values come from.

Target: T1, FANCL URD-RING fragment (FANCL^UR) (human, UniProt Q9NW38 109-375)
T1 sequence: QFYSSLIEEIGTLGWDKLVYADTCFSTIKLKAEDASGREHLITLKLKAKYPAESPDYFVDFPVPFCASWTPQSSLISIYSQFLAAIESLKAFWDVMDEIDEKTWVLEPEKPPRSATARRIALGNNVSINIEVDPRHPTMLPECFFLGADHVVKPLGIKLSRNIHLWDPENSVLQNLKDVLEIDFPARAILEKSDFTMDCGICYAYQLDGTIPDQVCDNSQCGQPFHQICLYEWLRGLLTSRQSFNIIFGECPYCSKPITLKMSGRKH
Assay: ITC

BINDER: Ube2T R84S (enzyme) MQRASRLKRELHMLATEPPPGITCWQDKDQMDDLRAQILGGANTPYEKGVFKLEVIIPERYPFEPPQIRFLTPIYHPNIDSAGSICLDVLKLPPKGAWRPSLNIATVLTSIQLLMSEPNPDDPLMADISSEFKYNKPAFLKNARQWTEKHARQKQKADEEEMLDNLPEAGDSRVHNSTQKRKASQLVGIEKKFHPDV
binding result: binds
